Target: K103N RT RNase H (Human immunodeficiency virus type 1 group M subtype B, UniProt P03366, K702N)
Assay: biochemical
measured.endpoint: IC50

"O=C1c2ccccc2C(=O)c2c1ccc(O)c2O" has a reported IC50 of > 100 µM

* * *

Biological target: isolated HIV RNase H domain (p15) (Human immunodeficiency virus type 1 group M subtype B)
Assay: Quenching of intrinsic fluorescence of the isolated RNase H domain
Assay type: binding, HIV-1
measured.endpoint: IC50 (µM)
Reply with just the number (in µM).

"O=C1Cc2ccccc2C(=O)N1O" has a reported IC50 of 52

* * *

Target: wt HIV-1 RT-associated RDDP activity (Human immunodeficiency virus type 1 group M subtype B)
measured.endpoint: IC50

O=C1c2ccccc2C(=O)c2c1ccc(O)c2O [Alizarine, alizarine] has a reported IC50 of 79 µM

Where do the numbers come from? From paper PMC3682423.
